Target: Protein kinase C epsilon type (Homo sapiens, UniProt Q02156)
Sequence (Q02156 whole entry): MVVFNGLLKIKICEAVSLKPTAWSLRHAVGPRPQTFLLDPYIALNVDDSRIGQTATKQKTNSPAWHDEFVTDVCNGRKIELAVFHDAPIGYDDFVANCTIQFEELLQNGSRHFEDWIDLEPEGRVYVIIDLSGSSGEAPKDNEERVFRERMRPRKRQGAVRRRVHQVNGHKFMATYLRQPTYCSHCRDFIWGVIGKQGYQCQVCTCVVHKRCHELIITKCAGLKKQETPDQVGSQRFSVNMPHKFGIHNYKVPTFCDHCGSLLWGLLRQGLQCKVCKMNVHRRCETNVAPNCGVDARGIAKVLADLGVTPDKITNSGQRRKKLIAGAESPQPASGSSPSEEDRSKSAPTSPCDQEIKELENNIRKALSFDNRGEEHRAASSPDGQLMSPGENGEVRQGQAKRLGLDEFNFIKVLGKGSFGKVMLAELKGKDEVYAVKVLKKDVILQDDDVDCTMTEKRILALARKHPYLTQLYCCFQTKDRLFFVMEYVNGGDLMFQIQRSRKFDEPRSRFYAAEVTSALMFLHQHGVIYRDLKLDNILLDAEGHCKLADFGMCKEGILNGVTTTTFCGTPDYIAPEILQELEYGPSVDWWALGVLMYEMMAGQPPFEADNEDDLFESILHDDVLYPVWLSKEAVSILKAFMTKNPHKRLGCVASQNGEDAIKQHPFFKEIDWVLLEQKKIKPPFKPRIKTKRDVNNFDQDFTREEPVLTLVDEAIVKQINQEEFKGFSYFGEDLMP
Reported Property: Ki (nM)
# output: bare number, implied unit nM

Please give the measured Ki for this compound: "CC(C)[C@H]1C(=O)N[C@H](CO)Cc2cn3ncc4ccc(c2c43)N1C"
22.5

Please give the measured Ki for this compound: "CC(C)[C@H]1C(=O)N[C@H](CO)Cc2cn3nc(C(F)(F)F)c4ccc(c2c43)N1C"
80.1

Please give the measured Ki for this compound: "Cc1nn2cc3c4c(ccc1c42)N(C)[C@@H](C(C)C)C(=O)N[C@H](CO)C3"
407
